Tested on: SN12C renal
Experiment: NCI-60 one-dose screen, 48 h (100 = growth as untreated, 0 = no growth, -100 = all killed)
Details: 10 µM unless noted
This is part of a sample that, as a whole, favours compounds with a hit. Of some 83,000 tested, about 20% had one in any assay.
Classes (growth): bin 0 = under 40%, bin 1 = from 40% up to 80%, bin 2 = 80% and over

[
  {
    "Compound": "Cc1cc2nc3c4cc(C#N)ccc4n(CCN(C)C)c3nc2cc1C",
    "Group Label": "bin 0"
  },
  {
    "Compound": "Cn1cc(-c2nn3cc(-c4ccncc4)nc3s2)c2cc(F)ccc21",
    "Group Label": "bin 2"
  },
  {
    "Compound": "O=C(CSc1nc2ccccc2c(=O)n1-c1ccccc1)N/N=C/c1ccc(Oc2ccc(Cl)cc2)cc1",
    "Group Label": "bin 0"
  },
  {
    "Compound": "O=C(/C=C/c1cccc(Br)c1)c1cccc(OCCCCOc2cccc(C(=O)/C=C/c3cccc(Br)c3)c2)c1",
    "Group Label": "bin 2"
  },
  {
    "Compound": "Cc1ccc(C)c(NC2=C(Cl)C(=O)c3nc(C)ccc3C2=O)c1",
    "Group Label": "bin 0"
  },
  {
    "Compound": "C#CCN(C)CCCOc1ccc(NC(=O)CCCCCCC(=O)NO)cc1Cl",
    "Group Label": "bin 1"
  }
]

Field: class (growth) — entry: CC(Nc1c(C#N)cnc2ccc(-c3cncc(O)c3)cc12)c1ccccc1 (stereo unspecified) bin 0

Classify this compound: "O=C(CSc1nnc(-c2ccc(Cl)cc2)n1-c1ccccc1)Nc1cccc(F)c1" bin 0

Which class holds "CC1=C(C)C(=O)C(Nc2cccc(C(=O)OC(C)(C)C)c2)=CC1=O" ? bin 1

Which category fits this record: "COc1ccc2c(c1)c(-c1nnc(N)nc1-c1c[nH]c3ccc(F)cc13)cn2C" bin 1

Hey, which category is "O=S(=O)(Oc1ccc(-c2cn3ccsc3n2)cc1)c1cccc(C(F)(F)F)c1" in, do you know? bin 2

Field: class (growth) — entry: CCCC/C(=C\c1ccc(O)c(O)c1)C(=O)NC(Cc1ccccc1)C(=O)C(=O)NCCc1ccc(OC)cc1 (stereo unspecified) bin 2

// bin(item) where item = "O=C(COc1ccc(/C=C2\C(=O)Nc3ccc(F)cc32)cc1)Nc1ccccc1" bin 2

Into which bin does this compound go? "COc1ccc(N2CCN(C3=C(Cl)C(=O)c4ncccc4C3=O)CC2)cc1" bin 2

Field: class (growth) — entry: "Cc1ccc(Nc2nc(SC(C)C)nc(-c3ccccc3)c2C#N)cc1" bin 2

Which of the defined bands does the recorded growth of "CN(C)S(=O)(=O)c1ccc(-c2nc(C(Cl)Cl)nc3cc(-c4ccc(F)cc4)nn23)cc1" sit within? bin 0

State the class of the compound shown: "NC1=NC2(CCCC2)N(c2ccc(S(=O)(=O)Nc3nccs3)cc2)C(N)=N1" bin 2

Each compound maps to one class by growth. Which class for "NCCNC(=O)c1cccc(COc2ccccc2NC(=O)c2cc(Br)c(Br)[nH]2)c1" ? bin 2

Into which category would you place "COc1ccc(-c2cnc(NC(=O)CCCCCCNC(=O)C(O)(O)C(F)(F)F)s2)cc1" ? bin 0

Hi there! Could you help me figure out the category for "COc1ccc(C(=O)c2c(N)c(C#N)cn2-c2ccc(Cl)cc2Cl)cc1" please? bin 2

Would you mind sorting "CN1CCN(c2ccc(Nc3nc(NCCCNS(=O)(=O)c4ccc(C(F)(F)F)cc4)c4sccc4n3)cc2)CC1" into the appropriate category? bin 0

Which growth category applies to "CCCCCCNC(=O)Oc1ccc(/C(=C(/C)c2ccc(Cl)cc2)c2ccc(OCCN3CCCCCC3)cc2)cc1" here? bin 1

# classify by growth band: CC[C@]12C=CCN3CC[C@]4(C(=C(C(=O)OC)C1)Nc1cc5c(cc14)[C@@H]1[C@H](O5)[C@@H](O)[C@@]4(CC)CC(C(=O)OC)=C5Nc6cc(O)ccc6[C@@]56CCN1C46)C32 (stereo partly specified) bin 0

Place this compound in its band: "CN(C)CC(=O)Nc1nc(-c2cccc(NS(=O)(=O)c3cccc4c(N(C)C)cccc34)c2)cs1" bin 1

====

Test system: MDA-MB-231 breast
Experiment: NCI-60 one-dose screen, 48 h (100 = growth as untreated, 0 = no growth, -100 = all killed)
Conditions: 10 µM unless noted
This is part of a sample that, as a whole, favours compounds with a hit. Of some 83,000 tested, about 20% had one in any assay.
Under this convention, Fulfilled denotes growth strictly below 80% and Not fulfilled denotes growth at or above 80%.

[
  {
    "Compound": "NC(=S)n1c(=O)n(-c2cccc(C(F)(F)F)c2)c(=O)c2cc(-c3ccc(F)cc3F)ccc21",
    "Group Label": "Fulfilled"
  },
  {
    "Compound": "O=C1[C@@H]2Cc3c([nH]c4ccccc34)[C@@H](c3ccc(Cl)cc3)N2C(=O)CN1C1CCN(Cc2c(F)cccc2F)CC1",
    "Group Label": "Fulfilled"
  },
  {
    "Compound": "OCC(Nc1ncnc2ccc(-c3cnc4cnccn34)cc12)c1ccccc1 (stereo not drawn)",
    "Group Label": "Not fulfilled"
  },
  {
    "Compound": "O=C(N/N=C\\c1ccc([N+](=O)[O-])cc1)c1ccc2nc(-c3ccc(Br)cc3)[nH]c2c1",
    "Group Label": "Fulfilled"
  },
  {
    "Compound": "O=C1C(SCc2ccccc2)=C(Cl)CN1c1ccc(Cl)cc1",
    "Group Label": "Not fulfilled"
  },
  {
    "Compound": "COC(=O)CCCNCCCn1ccc2cc(NCc3cccc(-c4ccccc4)c3C)ccc21",
    "Group Label": "Fulfilled"
  }
]

is_below(growth, 80%) for "COc1cc(NC(=O)Nc2cccc(-c3cc(=O)c4c(OC)c(OC)c(OC)cc4o3)c2)cc(OC)c1OC" ? Fulfilled

Field: below-cutoff. Rule: recorded growth strictly less than 80%. Subject: "Cc1[nH]c(C(=O)Nc2ccc(C(=O)NCC3CCNCC3)cc2OC(C)C)c(Cl)c1Cl" Fulfilled

Given "CCCC[n+]1ccc(SCC(=O)n2ccc3ccccc32)c2ccccc21" , is recorded growth strictly lower than 80%? Not fulfilled

Report whether reported growth is lower than 80% (strictly) for "CN1CCN(c2ccc(Nc3nc(NCCNS(=O)(=O)c4ccc5ccccc5c4)c4sccc4n3)cc2)CC1" Fulfilled

For this compound, is growth lower than 80%? "NS(=O)(=O)c1ccc(CCn2c(-c3ccc(C(=O)O)cc3)nc(-c3ccccc3)c2-c2ccccc2)cc1" Not fulfilled

Quick check: growth of "COC(=O)c1cccc(NC2=C(Cl)C(=O)c3nc(C)ccc3C2=O)c1" under 80%? Fulfilled

Check if growth falls below 80% for "CC(=C(c1ccc(OCCCN(C)C)cc1)c1ccc(OCCCN(C)C)cc1)c1ccc(Cl)cc1" . Not fulfilled

Decide: growth of "COc1cc(C(=O)c2cc(C(C)=O)c3cccc(C)n23)cc(OC)c1OC" strictly below 80%? Fulfilled

====

System: SK-OV-3 ovarian
Experiment: NCI-60 one-dose screen, 48 h (100 = growth as untreated, 0 = no growth, -100 = all killed)
Conditions: 10 µM unless noted
The panel holds about 83,000 compounds, 20% with a hit somewhere; the sample as a whole holds those more often.
Hi! Could you tag entries with growth below 90% as y, and those at or above as n? Much appreciated.

Please review the following examples before continuing.
[
  {
    "Compound": "Cc1ccc(C(=O)Nc2ccc(CNCCN3CCNCC3)c(C(F)(F)F)c2)cc1C#Cc1cnc2cccnn12",
    "Group Label": "n"
  },
  {
    "Compound": "O=C(CSc1nc2ccccc2c(=O)n1-c1ccccc1)N/N=C/c1ccc(Oc2ccc(Cl)cc2)cc1",
    "Group Label": "y"
  },
  {
    "Compound": "O=C1[C@@H]2Cc3c([nH]c4ccccc34)[C@@H](c3ccc(Cl)cc3)N2C(=O)CN1C1CCN(Cc2ccccc2)CC1",
    "Group Label": "y"
  },
  {
    "Compound": "N#C/C(=N\\Nc1ccc(F)cc1)C(=O)Nc1cc(-c2ccccc2)nn1-c1ccccc1",
    "Group Label": "y"
  },
  {
    "Compound": "Cc1ccc(C(=O)CSc2nnc(-c3ccc(-c4ccc(Cl)cc4)nc3C)o2)cc1",
    "Group Label": "n"
  }
]

For this compound, is growth lower than 90%? "O=C(/C=C/c1ccccc1Cl)Nc1ncc(Cc2cc(Cl)ccc2Cl)s1" y

Record "COC(=O)[C@@H](Cc1c[nH]c2ccccc12)NC(=O)CCCCOc1cc(O)c2c(=O)cc(-c3ccccc3)oc2c1" : is its growth strictly below 90%? n

Criterion: growth strictly below 90%. Is it met by "O=C(CCCCCCNC(=O)C(O)(O)C(F)(F)F)Nc1nc2ccccc2s1" ? y

Please determine if "Cc1nc(N)sc1-c1csc(Nc2ccc(C(F)(F)F)cc2)n1" is below 90% in terms of growth. y

Threshold test, growth < 90%: CCS(=O)(=O)Nc1ccc(C(=O)CC2(O)C(=O)Nc3ccccc32)cc1 (centres undefined) n

Given the entry "CC1=C(C)C(=O)C(Nc2cccc(C)c2)=C(Br)C1=O" , would its reported growth be below 90%? y

is_below(growth, 90%) for "C#C[C@]1(O)CC[C@H]2[C@@H]3CC=C4c5sc(NCc6ccccc6)nc5CC[C@]4(C)[C@H]3CC[C@@]21C" ? y
